GI50 values, listed per item
System: NCI-H23
Assay: NCI tumour cell line growth inhibition, 48 h
Active and inactive are the calls of the source. Cut-off read from the data, not from the text of the source: active = GI50 up to about 1.1 µM and inactive = higher.

COMPOUND	GI50
CN(C)CCNC(=O)c1cccc2ncc(-c3ccccc3)nc12	14.6 µM (inactive)

Which measured GI50 belongs to O=c1c2cc(O)c(O)cc2oc2cc(O)c(C3OC(CO)C(O)C(O)C3O)c(O)c12 (stereo not given) , tested on NCI-H23?
> 100 µM (inactive)

Which measured GI50 belongs to CC1=C2C(O)C(C(C)C(=O)N(C)C)CCC2(C)C=CC1=O (stereo not given) , tested on NCI-H23?
> 100 µM (inactive)

Which measured GI50 belongs to `CC(C)(C)[Si](C)(C)Oc1cc(CO)cc2c1cc(=N)o[n+]2[O-]` , tested on NCI-H23?
6.97 µM (inactive)

Which measured GI50 belongs to C=C1CC2(C)CCC(OC(=O)C3(C)OC3C)C(C)(OC(C)=O)C2CC1=C(C)C (stereo not given) , tested on NCI-H23?
> 100 µM (inactive)

Which measured GI50 belongs to COc1ccc2c3c1O[C@H]1C(OC)C=CC4C(C2)N(Cc2cccs2)CCC341 (stereo not given in full) , tested on NCI-H23?
38.8 µM (inactive)

Which measured GI50 belongs to `O=[N+]([O-])c1c(/C=N/c2ccccc2)oc(-c2ccc3c(c2)OCO3)c1-c1ccc2c(c1)OCO2` , tested on NCI-H23?
> 100 µM (inactive)

Which measured GI50 belongs to `COc1ccc(S(=O)(=O)N/N=C\c2cc([N+](=O)[O-])cc(I)c2O)c(OC)c1OC` , tested on NCI-H23?
30.5 µM (inactive)

Which measured GI50 belongs to COc1ccc(-c2nc3cc(C(F)(F)F)ccc3n2CC2CCCN3CCCCC23)cc1 (stereo not given) , tested on NCI-H23?
15.6 µM (inactive)

Which measured GI50 belongs to CCNC(CCCC(NCC)P(=O)(O)O)P(=O)(O)O (stereo not given) , tested on NCI-H23?
> 100 µM (inactive)
